Details: in ethanol, 283.15 K
quantity name: solubility (mole fraction)
Lab note: jot the number down without any unit.

query: # get_value(readout='solubility (mole fraction)', item= `CC(C)[C@H](N)C(=O)O` )
result: 0.000254

* * *

Conditions: in ethanol, 288.15 K
quantity name: solubility (mole fraction)

query: Item `CC(C)[C@H](N)C(=O)O` has what recorded solubility (mole fraction)?
result: 0.00026

* * *

Conditions: in n-butanol, 298.15 K
quantity name: solubility (mole fraction)
Write the number on its own, no unit after it.

query: Entry `CC(C)[C@H](N)C(=O)O` has what solubility (mole fraction)?
result: 6.9e-05

* * *

Settings: in ethanol, 293.15 K
quantity name: solubility (mole fraction)
Quick one: just the number, no unit, thanks!

query: Which solubility (mole fraction) is reported for this compound? `CC(C)[C@H](N)C(=O)O`
result: 0.000272

* * *

Conditions: in ethyl acetate, 288.15 K
quantity name: solubility (mole fraction)
The response must contain the number and no unit.

query: Any idea what its solubility (mole fraction) is? The molecule is `CC(C)[C@H](N)C(=O)O`
result: 3.7e-05

* * *

Conditions: in acetone, 298.15 K
quantity name: solubility (mole fraction)
Format: numeric value only, no unit, no commentary.

query: Given `CC(C)[C@H](N)C(=O)O` , state its recorded solubility (mole fraction).
result: 7.5e-05

* * *

Conditions: in methanol, 293.15 K
quantity name: solubility (mole fraction)
Field format: numeric only.

query: What does the record list as solubility (mole fraction) for `CC(C)[C@H](N)C(=O)O` ?
result: 0.000624

* * *

Conditions: in methyl acetate, 303.15 K
quantity name: solubility (mole fraction)

query: Give the measured solubility (mole fraction) of `CC(C)[C@H](N)C(=O)O` .
result: 4.2e-05

* * *

Details: in ethanol, 303.15 K
quantity name: solubility (mole fraction)
When you answer, write just the number.

query: Tell me the measured solubility (mole fraction) of `CC(C)[C@H](N)C(=O)O` , please.
result: 0.000303

* * *

Details: in isopropanol, 303.15 K
quantity name: solubility (mole fraction)
Give your answer as a number; write no unit.

query: # get_value(readout='solubility (mole fraction)', item= `CC(C)[C@H](N)C(=O)O` )
result: 4.2e-05

* * *

Details: in isopropanol, 313.15 K
quantity name: solubility (mole fraction)
Lab note: record the figure alone, no unit after it.

query: Which solubility (mole fraction) value is on record for `CC(C)[C@H](N)C(=O)O` ?
result: 7e-05

* * *

Settings: in acetone, 313.15 K
quantity name: solubility (mole fraction)
Response field accepts a number only; no unit should be typed.

query: I would be grateful if you could share the reported solubility (mole fraction) for `CC(C)[C@H](N)C(=O)O` .
result: 0.000171

* * *

Conditions: in n-propanol, 288.15 K
quantity name: solubility (mole fraction)
API doc: respond with a numeric literal and nothing else, no unit.

query: // returns reported solubility (mole fraction) for input `CC(C)[C@H](N)C(=O)O`
result: 1.9e-05

* * *

Details: in methyl acetate, 323.15 K
quantity name: solubility (mole fraction)
# output: bare number, no unit

query: Entry under review: `CC(C)[C@H](N)C(=O)O` . Reported solubility (mole fraction)?
result: 0.000115

* * *

Conditions: in acetonitrile, 293.15 K
quantity name: solubility (mole fraction)
Number only, no unit.

query: For `CC(C)[C@H](N)C(=O)O` , what is its reported solubility (mole fraction)?
result: 4.3e-05

Every entry's value here was drawn from BigSolDB 2.1.
